- Tested on: Leukemia L1210
- assay explanation: Activity against Leukemia L1210, intraperitoneal, increase in life span of mice
- Format: in vivo, female mice (BDF1 family)
- assay conditions: ip; O.D./ILS30
recorded metric: Therapeutic ratio TR
Answer using only a numeral; do not append any unit.

System Leukemia L1210. Read-out Therapeutic ratio TR. Item "CCCN(C[C@@H]1O[C@@H](OCC(C)C)[C@@H](O)[C@H](O)[C@@H]1O)C(=O)N(CCCl)N=O" . Report value.
36.5

System Leukemia L1210. Read-out Therapeutic ratio TR. Item COCC(C)O[C@H]1O[C@H](CN(CC2CC2)C(=O)N(CCCl)N=O)[C@@H](O)[C@H](O)[C@H]1O (stereo partly shown) . Report value.
64.1

System Leukemia L1210. Read-out Therapeutic ratio TR. Item "CCCCO[C@H]1O[C@H](CO)[C@@H](O)[C@H](O)[C@H]1N(CCCC)C(=O)N(CCCl)N=O" . Report value.
29.8

System Leukemia L1210. Read-out Therapeutic ratio TR. Item C=C(C)CN(C(=O)N(CCCl)N=O)C1C(CO)OC(OC(C)CC)C(O)C1O (stereo not shown) . Report value.
32.3

System Leukemia L1210. Read-out Therapeutic ratio TR. Item CCCCOC1OC(CO)C(O)C(N(C(=O)N(CCCl)N=O)C(C)CC)C1O (stereo not shown) . Report value.
34.5

System Leukemia L1210. Read-out Therapeutic ratio TR. Item CCC(C)O[C@H]1O[C@H](CO)[C@@H](O)[C@H](O)[C@H]1N(CC(C)C)C(=O)N(CCCl)N=O (stereo partly shown) . Report value.
34.5

System Leukemia L1210. Read-out Therapeutic ratio TR. Item "CC(C)(C)N(C[C@H]1O[C@H](OCCN2CCOCC2)[C@H](O)[C@@H](O)[C@@H]1O)C(=O)N(CCCl)N=O" . Report value.
55.4

====

- Tested on: Leukemia L1210
- assay explanation: Activity against Leukemia L1210, intraperitoneal, increase in life span of mice
- Assay type: in vivo, female mice (BDF1 family)
- assay conditions: ip; O.D./ILS30
Consider the following compounds; for each one, report its Therapeutic ratio TR.
Answer using only a numeral; do not append any unit.

Note Therapeutic ratio TR for the compound shown: CC(C)CO[C@@H]1O[C@H](CN(CC(C)(C)C)C(=O)N(CCCl)N=O)[C@@H](O)[C@H](O)[C@H]1O [Compound 184]
58.0

Note Therapeutic ratio TR for the compound shown: CCOCCCO[C@H]1O[C@H](CN(CC(C)C)C(=O)N(CCCl)N=O)[C@@H](O)[C@H](O)[C@H]1O [Compound 32]
58.4

Note Therapeutic ratio TR for the compound shown: O=NN(CCCl)C(=O)N(CC1CCCO1)C[C@H]1O[C@H](OC2CCCCC2)[C@H](O)[C@@H](O)[C@@H]1O (stereo partly shown) [Compound 50]
64.9

Note Therapeutic ratio TR for the compound shown: O=NN(CCCl)C(=O)N(CC1CCCO1)[C@H]1[C@H](O)[C@@H](OCCc2ccccc2)O[C@H](CO)[C@H]1O (stereo partly shown) [Compound 143]
42.6

====

- assay explanation: Acute toxicity (LD50, Behrens-Karber method)
- Assay type: in vivo, ICR mice
- assay conditions: mouse, in vivo, ip, mortality during 30 days
Consider the following compounds; for each one, report its LD50 at 720 h.
Reply with a number, then the unit it belongs to.

Note LD50 at 720 h for the compound shown: "CCCCO[C@H]1O[C@H](CN(C)C(=O)N(CCCl)N=O)[C@@H](O)[C@H](O)[C@H]1O"
260 mg/kg

Note LD50 at 720 h for the compound shown: COCC(C)N(C[C@H]1O[C@H](OC2CCCCC2)[C@H](O)[C@@H](O)[C@@H]1O)C(=O)N(CCCl)N=O (stereo partly shown)
595 mg/kg

Note LD50 at 720 h for the compound shown: "CC(C)CO[C@H]1O[C@H](CO)[C@H](O)[C@H](N(CC(C)C)C(=O)N(CCCl)N=O)[C@H]1O"
780 mg/kg

Note LD50 at 720 h for the compound shown: COCC(C)OC1OC(CO)C(O)C(N(CC(C)C)C(=O)N(CCCl)N=O)C1O (stereo not shown)
690 mg/kg

Note LD50 at 720 h for the compound shown: "CC(C)CN(C(=O)N(CCCl)N=O)[C@@H]1[C@@H](O)[C@@H](OC2CCCCC2)OC[C@H]1O"
505 mg/kg

Note LD50 at 720 h for the compound shown: "COCCN(C[C@H]1O[C@H](OCC(C)C)[C@H](O)[C@@H](O)[C@@H]1O)C(=O)N(CCCl)N=O"
570 mg/kg

Note LD50 at 720 h for the compound shown: COCCCOC1OC(CO)C(O)C(N(CC(C)C)C(=O)N(CCCl)N=O)C1O (stereo not shown)
685 mg/kg
